Test system: Hepatotoxicity
Assay: FDA HLAED, serum glutamic pyruvic transaminase (SGPT) increase
Conditions: human
value-kind: SGPT Increase - Number of Reports

>>> result("O=C(O)Cc1ccccc1Nc1c(Cl)cccc1Cl [DICLOFENAC]")
">= 4"
>>> result("C=C1c2c(Cl)ccc(O)c2C(=O)C2=C(O)[C@]3(O)C(=O)C(C(N)=O)=C(O)[C@@H](N(C)C)[C@@H]3[C@@H](O)[C@H]12 [MECLOCYCLINE]")
"< 4"
>>> result("CCN1CCN(C(=O)N[C@@H](C(=O)N[C@@H]2C(=O)N3[C@@H]2SC(C)(C)[C@@H]3C(=O)O)c2ccccc2)C(=O)C1=O [PIPERACILLIN]")
"< 4"
>>> result("CC1Cc2ccccc2N1NC(=O)c1ccc(Cl)c(S(N)(=O)=O)c1 (stereo not drawn) [INDAPAMIDE]")
"< 4"
>>> result("CC(=O)Nc1ccc(O)cc1 [ACETAMINOPHEN]")
">= 4"

Query block: State its SGPT Increase - Number of Reports on Hepatotoxicity: CCCCCCCN(CC)CCCC(O)c1ccc(NS(C)(=O)=O)cc1 (stereo not drawn) [IBUTILIDE]
Result block: < 4

Query block: Request - read-out SGPT Increase - Number of Reports | tested on Hepatotoxicity | compound O=P1(N(CCCl)CCCl)NCCCO1 (stereo not drawn) [CYCLOPHOSPHAMIDE ANHYDROUS]
Result block: >= 4

Query block: Can you look up SGPT Increase - Number of Reports on Hepatotoxicity for CCc1c2c(nc3ccc(OC(=O)N4CCC(N5CCCCC5)CC4)cc13)-c1cc3c(c(=O)n1C2)COC(=O)[C@]3(O)CC [IRINOTECAN] ?
Result block: < 4

----------
Test system: Hepatotoxicity
Assay: FDA HLAED, gamma-glutamyl transferase (GGT) increase
Conditions: human
value-kind: GGT Increase - Number of Reports

>>> result("CC(C(=O)O)c1ccc(-c2ccccc2)c(F)c1 (centres undefined)")
">= 4"
>>> result("O=C1c2c(O)ccc(O)c2C(=O)c2c(NCCNCCO)ccc(NCCNCCO)c21")
"< 4"
>>> result("CCCCC(C)(O)C/C=C/[C@H]1[C@H](O)CC(=O)[C@@H]1CCCCCCC(=O)OC (some centres undefined)")
"< 4"
>>> result("C[C@H]1C[C@H]2[C@@H]3CCC4=CC(=O)C=C[C@]4(C)[C@@]3(F)[C@@H](O)C[C@]2(C)[C@@]1(O)C(=O)CCl")
"< 4"

----------
Tested on: Hepatotoxicity
Assay: FDA HLAED, serum glutamic oxaloacetic transaminase (SGOT) increase
Details: human
value-kind: SGOT Increase - Activity Score

Recorded results for 5 molecules are shown here.
>>> result("CN(N=O)C(=O)N[C@@H](C=O)[C@@H](O)[C@H](O)[C@H](O)CO")
"Inactive"
>>> result("Clc1ccc(C(Cn2ccnc2)OCc2ccsc2Cl)c(Cl)c1 (stereo not drawn)")
"Inactive"
>>> result("CC1(C)S[C@@H]2[C@H](NC(=O)[C@H](NC(=O)N3CCN(S(C)(=O)=O)C3=O)c3ccccc3)C(=O)N2[C@H]1C(=O)O")
"Inactive"
>>> result("COc1cc2nc(N3CCN(C(=O)C4CCCO4)CC3)nc(N)c2cc1OC (stereo not drawn)")
"Inactive"
>>> result("COCC(=O)Nc1c(I)c(C(=O)NCC(O)CO)c(I)c(C(=O)N(C)CC(O)CO)c1I (stereo not drawn) [IOPROMIDE]")
"Inactive"

Note: attention shifts to another entry.
Query block: What measured SGOT Increase - Activity Score goes with CC(C)Cc1ccc(C(C)C(=O)O)cc1 (stereo not drawn) ?
Result block: Marginally Active

----------
Test system: Hepatotoxicity
Assay: FDA HLAED, serum glutamic oxaloacetic transaminase (SGOT) increase
Settings: human
Entries and their measured SGOT Increase - Index Value follow.
Lab note: jot down the number only; don't add units.

>>> quantitative_result("Cc1nnc2n1-c1ccc(Cl)cc1C(c1ccccc1Cl)=NC2")
0.3
>>> quantitative_result("CCCCCCC(=O)O[C@H]1CC[C@H]2[C@@H]3CCC4=CC(=O)CC[C@]4(C)[C@H]3CC[C@]12C [TESTOSTERONE ENANTHATE]")
4.8
>>> quantitative_result("C[C@@]12CCCCC[C@@H](Cc3ccc(O)cc31)[C@@H]2N")
0
>>> quantitative_result("CO/N=C(\\C(=O)N[C@@H]1C(=O)N2C(C(=O)O)=C(CSc3nc(=O)c(=O)[nH]n3C)CS[C@H]12)c1csc(N)n1")
3.8
>>> quantitative_result("CCCCCCCCCC(=O)CC(=O)O[C@H]1CC[C@H]2[C@@H]3CCC4=CC(=O)CC[C@]4(C)[C@H]3CC[C@]12C [TESTOSTERONE KETOLAURATE]")
4.8
>>> quantitative_result("CC1(C)O[C@@H]2C[C@H]3[C@@H]4C[C@H](F)C5=CC(=O)C=C[C@]5(C)[C@H]4[C@@H](O)C[C@]3(C)[C@]2(C(=O)CO)O1 [FLUNISOLIDE]")
0

Query block: Would you mind telling me what SGOT Increase - Index Value value was observed for Clc1ccc(COC(Cn2ccnc2)c2ccc(Cl)cc2Cl)cc1 (configuration not stated) ?
Result block: 0

Query block: For CCCCC[C@H](O)/C=C/[C@@H]1[C@H]2C/C(=C/CCCC(=O)O)O[C@H]2C[C@H]1O , what is its reported SGOT Increase - Index Value?
Result block: 0

Query block: Bench note: what SGOT Increase - Index Value did NNCCc1ccccc1 show?
Result block: 4.9

Query block: Fill blank: measured SGOT Increase - Index Value of the molecule Nc1nc2ccc(OC(F)(F)F)cc2s1 is ____.
Result block: 22.6

Query block: Item under review: C[C@H]1C[C@H]2[C@@H]3CCC4=CC(=O)C=C[C@]4(C)[C@@]3(Cl)[C@@H](O)C[C@]2(C)[C@@]1(O)C(=O)CO . Reported SGOT Increase - Index Value?
Result block: 0

Query block: Using the record for CC(C(=O)O)c1ccc(C(=O)c2cccs2)cc1 (configuration not stated) , report its SGOT Increase - Index Value.
Result block: 6.1

Query block: Quick one: SGOT Increase - Index Value for C[C@@H]1CN([C@H]2CC[C@](C#N)(c3ccc(F)cc3)CC2)CC[C@]1(C(=O)O)c1ccccc1 ?
Result block: 0

Query block: What value of SGOT Increase - Index Value has been reported for the following molecule? N=C(N)NCC1COC2(CCCCC2)O1 (configuration not stated)
Result block: 0

Query block: Consider the molecule shown here: CC(C)(O/N=C(\C(=O)N[C@@H]1C(=O)N2C(C(=O)[O-])=C(C[n+]3ccccc3)CS[C@H]12)c1csc(N)n1)C(=O)O What is its recorded SGOT Increase - Index Value?
Result block: 0

Query block: For the molecule shown here, OC(Cn1cncn1)(Cn1cncn1)c1ccc(F)cc1F , give the reported SGOT Increase - Index Value.
Result block: 9.8

----------
Composite Activity - Marginal reference
System: Hepatotoxicity
Assay: FDA HLAED, liver enzyme composite activity
Details: human
Returns: the value as a bare number; no unit string appended.

>>> quantitative_result("CC(=O)O[C@@]12CO[C@@H]1C[C@H](O)[C@@]1(C)C(=O)[C@H](O)C3=C(C)[C@@H](OC(=O)[C@H](O)[C@@H](NC(=O)OC(C)(C)C)c4ccccc4)C[C@@](O)([C@@H](OC(=O)c4ccccc4)[C@H]21)C3(C)C.O.O.O [DOCETAXEL]")
0
>>> quantitative_result("OCCN1CCN(CCCN2c3ccccc3Sc3ccc(Cl)cc32)CC1 [PERPHENAZINE]")
0

Here's the next entry for you.
Query block: Recorded Composite Activity - Marginal for CCC(=O)O[C@@H](O[P@](=O)(CCCCc1ccccc1)CC(=O)N1C[C@H](C2CCCCC2)C[C@H]1C(=O)O)C(C)C [FOSINOPRIL] , please?
Result block: 0

----------
Test system: Hepatotoxicity
Test: FDA HLAED, liver enzyme composite activity
Details: human
value-kind: Composite Activity - Active
Give the value as a plain number.

Some solved cases for reference:
>>> quantitative_result("CCC1=C[C@@H]2CN(C1)Cc1c([nH]c3ccccc13)[C@@](C(=O)OC)(c1cc3c(cc1OC)N(C)[C@H]1[C@@](O)(C(=O)OC)[C@H](OC(C)=O)[C@]4(CC)C=CCN5CC[C@]31[C@@H]54)C2")
1
>>> quantitative_result("CC(C)(O/N=C(\\C(=O)N[C@@H]1C(=O)N2C(C(=O)[O-])=C(C[n+]3ccccc3)CS[C@H]12)c1csc(N)n1)C(=O)O")
0
>>> quantitative_result("FC(F)OC(F)C(F)(F)F (centres undefined)")
0

Please turn your attention to the following entry.
Query block: For the compound CC1COc2c(N3CCN(C)CC3)c(F)cc3c(=O)c(C(=O)O)cn1c23 (centres undefined) , what Composite Activity - Active is on record?
Result block: 0

Reference source for all entries: ChEMBL document CHEMBL1697781
